The reported measurements were obtained from ChEMBL document CHEMBL1138948.

Form: system (UniProt P32245), quantity (pKi), values below.
Sequence (P32245 whole entry): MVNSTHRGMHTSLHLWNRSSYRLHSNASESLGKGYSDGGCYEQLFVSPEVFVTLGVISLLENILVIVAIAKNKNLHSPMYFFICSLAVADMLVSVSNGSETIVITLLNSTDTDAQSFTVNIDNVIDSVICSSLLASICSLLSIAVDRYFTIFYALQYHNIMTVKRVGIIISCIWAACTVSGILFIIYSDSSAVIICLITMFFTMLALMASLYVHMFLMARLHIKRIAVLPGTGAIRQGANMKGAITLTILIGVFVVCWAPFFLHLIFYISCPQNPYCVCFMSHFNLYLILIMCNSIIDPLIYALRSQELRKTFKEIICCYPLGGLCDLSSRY
Value format note: pKi is -log10 of concentration (mol/L); just state the number.

Example entries and their recorded answers appear below.
{"columns": ["Structure String", "Endpoint Label", "Result Number"],
 "data": [
  ["CC(=O)N[C@@H](Cc1ccc(O)cc1)C(=O)N[C@H](Cc1ccccc1)C(=O)N1C[C@H](OCc2ccc3ccccc3c2)C[C@H]1CCCN=C(N)N", "pKi", 5.63],
  ["N=C(N)NCCC[C@@H]1C[C@@H](OCc2ccc3ccccc3c2)CN1C(=O)[C@@H](Cc1ccccc1)NC(=O)[C@@H]1CCCCN1", "pKi", 5.77]
]}

Return pKi measured with UniProt P32245 given this compound: N=C(N)NCCC[C@@H]1C[C@H](OCc2ccc3ccccc3c2)CN1C(=O)[C@@H](Cc1ccccc1)NC(=O)[C@@H]1Cc2ccccc2CN1 6.17
